Reference source: patent EP2002836B1

# target of assay: AKT1 (Homo sapiens, UniProt P31749)
# Sequence (P31749 whole entry): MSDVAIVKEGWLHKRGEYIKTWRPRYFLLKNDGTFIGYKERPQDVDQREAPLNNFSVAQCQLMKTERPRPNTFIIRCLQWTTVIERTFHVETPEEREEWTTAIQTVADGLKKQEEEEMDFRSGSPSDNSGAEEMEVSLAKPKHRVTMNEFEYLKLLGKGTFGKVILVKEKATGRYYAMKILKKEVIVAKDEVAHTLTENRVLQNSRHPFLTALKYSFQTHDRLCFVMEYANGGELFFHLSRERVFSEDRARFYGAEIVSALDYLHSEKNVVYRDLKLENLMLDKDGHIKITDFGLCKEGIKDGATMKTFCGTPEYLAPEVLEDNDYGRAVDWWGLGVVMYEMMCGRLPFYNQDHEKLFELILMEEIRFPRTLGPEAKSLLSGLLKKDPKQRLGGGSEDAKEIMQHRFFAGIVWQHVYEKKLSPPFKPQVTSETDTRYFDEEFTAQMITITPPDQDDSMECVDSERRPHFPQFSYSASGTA
# experiment summary: FABS-NMR screening (3-FABS, 19F-labelled AKTide-like substrate) on AKT-1
# Format: biochemical
# Set-up: The active human Ser-Thr protein kinase AKT-1 Full Length was expressed as GST fusion protein; GST (cleaved yes); made in house; host or cells: insect cells
# study conditions: 25 nM protein, 30 µM substrate, 1.5 mM ATP; read-out: AKT1 IC50 (µM) FABS NMR assay
// values below are reported IC50

compound: O=C(N[C@H](CN1CCCC1)c1ccccc1)C1=Cc2c[nH]c3nccc(c23)CC1 [Cpd. 6]
target of assay: AKT1 (Homo sapiens, UniProt P31749)
units: µM
IC50: 0.315
//
compound: CC(=O)N1CC(C(=O)N[C@H](CN)Cc2ccccc2)=Cc2c[nH]c3nccc1c23 [Cpd. 3]
target of assay: AKT1 (Homo sapiens, UniProt P31749)
units: µM
IC50: 0.76
//
compound: NC[C@H](Cc1ccccc1)NC(=O)C1=Cc2c[nH]c3nccc(c23)NC1 [compound 2]
target of assay: AKT1 (Homo sapiens, UniProt P31749)
units: µM
IC50: 0.03
//
compound: NC[C@H](Cc1ccccc1)NC(=O)C1=Cc2c[nH]c3nccc(c23)CC1 [Cpd. 1]
target of assay: AKT1 (Homo sapiens, UniProt P31749)
units: µM
IC50: 0.15
